- protocol: Inhibitory concentration for cytotoxic activity against human ocular melanoma IPC227F cells upon incubation for 48 h at 37 °C
pIC50: −log10 of the molar value. Where a SMILES comes first, the peptide text is derived from it. The star is where a group is joined. Cbz = O=C(OCc1ccccc1)*
Criterion: pIC50 meeting or surpassing 6. Met: rule met. Not met: rule not met.

compound=CCN(CC)CCNC(=O)c1ccc(C(=O)N[C@@H](Cc2ccccc2)C(=O)N[C@H](C=O)CC(C)C)cc1 assigned_category="rule not met"
compound=CCN(CC)CCNC(=O)c1ccc(C(=O)N[C@@H](CC(C)C)C(=O)N[C@@H](Cc2ccccc2)C(=O)N[C@H](C=O)CC(C)C)cc1 assigned_category="rule not met"
compound=CCN(CC)CCNC(=O)c1ccc(C(=O)N[C@@H](Cc2ccccc2)C(=O)N[C@@H](CC(C)C)C(=O)N[C@H](C=O)CC(C)C)cc1 assigned_category="rule not met"
compound="CC(C)C[C@@H](C=O)NC(=O)[C@H](CC(C)C)NC(=O)[C@H](CC(C)C)NC(=O)OCc1ccccc1 [MG-132] (Cbz-Leu-Leu-Leu-aldehyde)" assigned_category="rule met"
compound=CCN(CC)CCNC(=O)c1ccc(C(=O)N[C@@H](CC(C)C)C(=O)N[C@@H](CC(C)C)C(=O)N[C@H](C=O)CC(C)C)cc1 assigned_category="rule met"
